- Tested on: bacterial inoculum
- EXPERIMENT: Thermal stability: in vitro lytic assay after 30 min heating
- Type: cell-based
- APPLIED_CONDITIONS: 30 minutes at 37° C.; another experiment
VALUE_TYPE: % of CF-301 wild-type, 37° C. (%)
Field: numeric (%). Do not append units.

Look up and report measured % of CF-301 wild-type, 37° C. for this entry: pp61: Modified PlySs2 lysin, SEQ ID NO: 4: L92W, V104S, V128T, Y137S, S198H, I206E; +246K (protein) MTTVNEALNNVRAQVGSGVSVGNGECYALASWYERMISPDATVGLGAGVGWVSGAIGDTISAKNIGSSYNWQANGWTVSTSGPFKAGQIVTWGATPGNPYGHVSIVEAVDGDRLTILEQNYGGKRYPTRNYYSAASSRQQVVHYITPPGTVAQSAPNLAGSRSYRETGTMTVTVDALNVRRAPNTSGEIVAVYKRGEHFDYDTVIEDVNGYVWVSYIGGSGKRNYVATGATKDGKRFGNAWGTFK
258.3
